The reported measurements were obtained from patent US20230158141A1.

# TARGET UNDER TEST: T1, IL-10R1-Fc (UniProt Q13651 22-235, limits assumed)
# T1 sequence (looked up): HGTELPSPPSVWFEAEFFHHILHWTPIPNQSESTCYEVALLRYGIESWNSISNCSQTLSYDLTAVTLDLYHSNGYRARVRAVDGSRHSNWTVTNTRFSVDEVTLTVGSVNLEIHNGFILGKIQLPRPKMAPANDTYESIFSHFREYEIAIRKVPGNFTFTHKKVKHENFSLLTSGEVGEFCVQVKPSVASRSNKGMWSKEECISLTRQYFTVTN
# ASSAY PROCEDURE: ELISA, IL-10R1-Fc coated
Items are presented alongside their recorded Binding recovery (>60%).
ASSAY ENDPOINT: Binding recovery (>60%)

BINDER | RESULT VALUE
IL-10 Arg159Cys-R4-20 (ligand, human, UniProt P22301 19-178, looked up, R4-20 on Cys 159, mature) SPGQGTQSENSCTHFPGNLPNMLRDLRDAFSRVKTFFQMKDQLDNLLLKESLLEDFKGYLGCQALSEMIQFYLEEVMPQAENQDPDIKAHVNSLGENLKTLRLRLRRCHRFLPCENKSKAVEQVKNAFNKLQEKGIYKAMSEFDIFINYIEAYMTMKICN | 99
IL-10 Thr100Cys-R4-7 (ligand, human, UniProt P22301 19-178, looked up, R4-7 on Cys 100, mature) SPGQGTQSENSCTHFPGNLPNMLRDLRDAFSRVKTFFQMKDQLDNLLLKESLLEDFKGYLGCQALSEMIQFYLEEVMPQAENQDPDIKAHVNSLGENLKCLRLRLRRCHRFLPCENKSKAVEQVKNAFNKLQEKGIYKAMSEFDIFINYIEAYMTMKIRN | 99.3
IL-10 Arg104Cys-R4-20 (ligand, human, UniProt P22301 19-178, looked up, R4-20 on Cys 104, mature) SPGQGTQSENSCTHFPGNLPNMLRDLRDAFSRVKTFFQMKDQLDNLLLKESLLEDFKGYLGCQALSEMIQFYLEEVMPQAENQDPDIKAHVNSLGENLKTLRLCLRRCHRFLPCENKSKAVEQVKNAFNKLQEKGIYKAMSEFDIFINYIEAYMTMKIRN | 98.5
